target: FABP9; assay: pooled miR-30 sensor sort-seq; sequence = guide strand; conditions: shRNA; further: reference of the scale not given here
Classification field: yes = sensor-assay potency score (higher = more potent) at or over -0.3; no = sensor-assay potency score (higher = more potent) under -0.3.

# bool: sensor-assay potency score (higher = more potent) of TTAGTGTCCTGGAAAGAACTTT >= -0.3
no

Please check the record TTTACTTTCCGGTTGTCTGCTG and state if its sensor-assay potency score (higher = more potent) is at or above -0.3.
yes

Hello, I need to know if TGTCCTGGAAAGAACTTTCTGT has measured sensor-assay potency score (higher = more potent) not below -0.3. Thanks!
yes

Confirm if sensor-assay potency score (higher = more potent) reported for the sequence TTACTTTCCGGTTGTCTGCTGT is -0.3 or above.
yes

Would you say TTTTGGACGTGAATCATTGAGC shows sensor-assay potency score (higher = more potent) at minimum -0.3?
no

Does the sequence TATGGTGCTCTTTACTTTCCGG have recorded sensor-assay potency score (higher = more potent) that is -0.3 or more?
no

In plain terms: is recorded sensor-assay potency score (higher = more potent) at least -0.3 for TTGATTGTTGTCTCTTTGCCAA ?
no

Evaluate TTACATTCCACTACCATTTTTT : sensor-assay potency score (higher = more potent) at minimum -0.3?
no
